B1: CDC25A (parent)
chain: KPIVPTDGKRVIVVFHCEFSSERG

Variants of: B1
Assay: protein stability index of a GFP-peptide fusion (GPS, HEK-293T) (PSI 1-6); higher = more stable;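 also: lentivirally expressed fusions sorted by FACS into six bins by GFP to DsRed ratio, PSI derived from sequencing read proportions per bin multiplied by bin number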
Settings: c terminus: a fixed tail appended
Below, each entry is listed with its recorded protein stability index.
// response body must contain only the number

# example entries with known answers
K9L	2.69
I3K	2.47
F15W	1.55
F15H	3.19
P5Q	2.27
R23F	3.05

Problem: Given the variant C17M , what is its reported protein stability index?
Result: 1.99

Problem: Moving on to V13S
Result: 3.36

Problem: Also check V14Y
Result: 2.6

Problem: Field entry: V14H
Result: 2.54

Problem: Same question for R10Q please.
Result: 2.14
